Experiment: Pharmacokinetics after IV bolus
Format: in vivo
Details: rat, plasma; rats; IV bolus 30 mg/kg; N = 3
# maps each entry to its half-life
Dear colleague, please return just the value in min, with no unit written.

[[record]]
compound = "CN(C)CCOc1ccc(Nc2ncc3c(n2)N(C2CCCC2)C(=O)[C@]2(CCNC2=O)C3)cc1 [Example D179]"
resultunit = "min"
observedvalue = 136

[[record]]
compound = "CC(C)N1CCN(c2ccc(Nc3ncc4c(n3)N(C3CCCC3)C(=O)[C@]3(CCNC3=O)C4)cc2)CC1 [Example D145]"
resultunit = "min"
observedvalue = 116


Need half-life, item CN1CCN(c2ccc(Nc3ncc4c(n3)N(C3CCCC3)C(=O)[C@]3(CCNC3=O)C4)cc2F)CC1 [Example D52]
267

* * *

Target: CDK7 CyclinH (Homo sapiens, UniProt P50613)
Sequence (P50613 whole entry): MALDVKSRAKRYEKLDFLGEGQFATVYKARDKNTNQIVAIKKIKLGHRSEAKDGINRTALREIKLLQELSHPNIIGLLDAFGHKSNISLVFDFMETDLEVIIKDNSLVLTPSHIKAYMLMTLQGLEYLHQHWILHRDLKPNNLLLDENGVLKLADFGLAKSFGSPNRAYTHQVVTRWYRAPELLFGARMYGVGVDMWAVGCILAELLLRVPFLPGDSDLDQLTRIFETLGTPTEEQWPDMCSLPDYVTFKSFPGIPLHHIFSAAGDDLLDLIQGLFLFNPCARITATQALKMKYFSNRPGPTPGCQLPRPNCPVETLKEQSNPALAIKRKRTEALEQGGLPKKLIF
Sequence (P51946 whole entry partner): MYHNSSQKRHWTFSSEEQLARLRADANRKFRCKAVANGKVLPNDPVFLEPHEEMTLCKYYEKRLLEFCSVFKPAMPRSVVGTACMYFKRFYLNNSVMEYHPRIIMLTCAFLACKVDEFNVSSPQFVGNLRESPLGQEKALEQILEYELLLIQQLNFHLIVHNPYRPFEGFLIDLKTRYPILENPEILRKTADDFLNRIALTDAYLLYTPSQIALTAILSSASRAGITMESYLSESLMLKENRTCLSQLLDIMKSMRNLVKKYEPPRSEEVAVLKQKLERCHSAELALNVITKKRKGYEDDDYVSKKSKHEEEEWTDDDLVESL
Sequence (P51948 whole entry partner): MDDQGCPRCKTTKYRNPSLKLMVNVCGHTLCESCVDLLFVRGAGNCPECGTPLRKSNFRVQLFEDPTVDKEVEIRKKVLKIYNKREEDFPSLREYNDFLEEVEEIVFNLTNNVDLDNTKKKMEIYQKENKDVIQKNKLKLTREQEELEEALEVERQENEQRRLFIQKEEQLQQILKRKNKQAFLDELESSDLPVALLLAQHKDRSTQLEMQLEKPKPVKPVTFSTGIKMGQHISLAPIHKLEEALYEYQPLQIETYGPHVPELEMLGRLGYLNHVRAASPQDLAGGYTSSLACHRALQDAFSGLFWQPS
Test: CDK inhibition assay (microfluidic LabChip, IC50 format)
Assay type: biochemical
Settings: Table 4a
measurementName: pIC50
Scale for pIC50: -log10 of concentration given in mol/L; no unit attached.

Observe how each entry below is paired with its result.
[[record]]
recordsmiles = "CN1CCN(c2ccc(Nc3ncc4c(n3)N(C3CCCC3)C(=O)[C@]3(CCNC3=O)C4)cc2)CC1"
measurementname = "pIC50"
observedvalue = 6.64

[[record]]
recordsmiles = "CN(C)CCOc1ccc(Nc2ncc3c(n2)N(C2CCCC2)C(=O)[C@]2(CCNC2=O)C3)cc1"
measurementname = "pIC50"
observedvalue = 6.49


Here's the next entry for you.
Need pIC50, item "CN(C)[C@@H]1CCN(c2ccc(Nc3ncc4c(n3)N(C3CCCC3)C(=O)[C@]3(CCNC3=O)C4)cn2)C1"
6.33

* * *

Target: CDK6-CYCLIND3 (Homo sapiens, UniProt Q00534)
Construct: purchased Carna
Sequence (Q00534 whole entry): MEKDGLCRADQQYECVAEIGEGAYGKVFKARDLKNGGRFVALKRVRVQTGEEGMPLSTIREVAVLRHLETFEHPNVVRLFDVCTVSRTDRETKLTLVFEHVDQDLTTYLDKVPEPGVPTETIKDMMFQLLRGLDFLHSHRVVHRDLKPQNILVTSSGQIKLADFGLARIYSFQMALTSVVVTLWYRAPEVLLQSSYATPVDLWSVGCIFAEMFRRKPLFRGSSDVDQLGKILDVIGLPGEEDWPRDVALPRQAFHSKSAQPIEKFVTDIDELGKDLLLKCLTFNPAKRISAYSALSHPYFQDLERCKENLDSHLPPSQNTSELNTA
Sequence (P30281 whole entry partner): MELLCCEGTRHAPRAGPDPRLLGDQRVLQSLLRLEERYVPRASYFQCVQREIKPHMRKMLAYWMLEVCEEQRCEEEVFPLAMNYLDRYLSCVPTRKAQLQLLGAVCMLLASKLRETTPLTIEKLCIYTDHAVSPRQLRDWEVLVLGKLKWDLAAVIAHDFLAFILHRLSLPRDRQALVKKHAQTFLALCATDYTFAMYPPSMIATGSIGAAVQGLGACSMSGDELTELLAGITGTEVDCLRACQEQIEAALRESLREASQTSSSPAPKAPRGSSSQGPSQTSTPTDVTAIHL
Assay: CDK inhibition assay (microfluidic LabChip, IC50 format)
Format: biochemical
Details: Table 4b, upper part; read-out: CDK6 IC50
Label class 1 when IC50 < 10 nM; otherwise class 0.

Recorded results for 2 compounds are shown here.
[[record]]
compound = "O=C1NCCC12Cc1cnc(Nc3ccc(OCCN4CCCCC4)nc3)nc1N(C1CCCC1)C2=O (stereo not drawn) [Example D35]"
classlabel = "class 0"

[[record]]
compound = "CC(C)N1CCN(c2ccc(Nc3ncc4c(n3)N(C3CCCC3)C(=O)C3(CCN(C)C3=O)C4)cn2)CC1 (stereo not drawn) [Example D18]"
classlabel = "class 0"


In plain terms, does O=C1NCCC12Cc1cnc(Nc3ccc(N4CCNCC4)cc3)nc1N(C1CCCC1)C2=O (stereo not drawn) [Example D3] come in under 10 nM for IC50?
class 1

In plain terms, does O=C1NCCC12Cc1cnc(Nc3ccc(N4CCC(N5CCOCC5)CC4)c(F)c3)nc1N(C1CCCC1)C2=O (stereo not drawn) [Example D38] come in under 10 nM for IC50?
class 1

In plain terms, does O=C1NCCC12Cc1cnc(Nc3ccc(N4CC5(CNC5)C4)cc3)nc1N(C1CCCC1)C2=O (stereo not drawn) [Example D40] come in under 10 nM for IC50?
class 1

In plain terms, does CN1CCN(c2ccc(Nc3ncc4c(n3)N(C3CCCC3)C(=O)C3(CCNC3=O)C4)nc2)CC1 (stereo not drawn) [Example D8] come in under 10 nM for IC50?
class 1

In plain terms, does CN(C)[C@H]1CCN(C(=O)c2ccc(Nc3ncc4c(n3)N(C3CCCC3)C(=O)C3(CCNC3=O)C4)cn2)C1 (stereo partly drawn) [Example D47] come in under 10 nM for IC50?
class 0

In plain terms, does CN1CCN(c2ccc(Nc3ncc4c(n3)N(C3CCCC3)C(=O)C3(CC(=O)N(C)C3=O)C4)cc2)CC1 (stereo not drawn) [Example D21] come in under 10 nM for IC50?
class 0

In plain terms, does CN1C(=O)CC2(Cc3cnc(Nc4ccc(OCCN5CCCC5)nc4)nc3N(C3CCCC3)C2=O)C1=O (stereo not drawn) [Example D31] come in under 10 nM for IC50?
class 0

In plain terms, does CN1C(=O)CC2(Cc3cnc(Nc4ccc(N5CCNCC5)nc4)nc3N(C3CCCC3)C2=O)C1=O (stereo not drawn) [Example D24] come in under 10 nM for IC50?
class 0

In plain terms, does CN(C)CCOc1ccc(Nc2ncc3c(n2)N(C2CCCC2)C(=O)C2(CC(=O)N(C)C2=O)C3)cn1 (stereo not drawn) [Example D29] come in under 10 nM for IC50?
class 0

In plain terms, does CN1C(=O)CC2(Cc3cnc(Nc4ccc(N5CCNCC5)cn4)nc3N(C3CCCC3)C2=O)C1=O (stereo not drawn) [Example D23] come in under 10 nM for IC50?
class 0

In plain terms, does O=C1NCCC12Cc1cnc(Nc3ccc(N4CCC(N5CCOCC5)CC4)cn3)nc1N(C1CCCC1)C2=O (stereo not drawn) [Example D39] come in under 10 nM for IC50?
class 0

In plain terms, does CC(C)N1CCN(c2ccc(Nc3ncc4c(n3)N(C3CCCC3)C(=O)C3(CCNC3=O)C4)nc2)CC1 (stereo not drawn) [Example D9] come in under 10 nM for IC50?
class 1

In plain terms, does CN(C)[C@H]1CCN(C(=O)c2ccc(Nc3ncc4c(n3)N(C3CCCC3)C(=O)C3(CCNC3=O)C4)cc2)C1 (stereo partly drawn) [Example D46] come in under 10 nM for IC50?
class 1

Where these numbers come from: patent US20230048132A1
